Target: HIV-1 Env of QH0692.42 (HIV-1)
Test: cell-based or functional assay
Parameter: neutralization IC50. Scope: all listed entries.
endpoint: neutralization IC50

binder: CAP256-VRC26.03 (antibody, V domains shown) VH: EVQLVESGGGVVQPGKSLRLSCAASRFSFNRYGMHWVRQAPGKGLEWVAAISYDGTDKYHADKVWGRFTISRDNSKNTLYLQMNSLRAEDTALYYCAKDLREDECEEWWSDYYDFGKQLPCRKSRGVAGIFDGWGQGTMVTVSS VL: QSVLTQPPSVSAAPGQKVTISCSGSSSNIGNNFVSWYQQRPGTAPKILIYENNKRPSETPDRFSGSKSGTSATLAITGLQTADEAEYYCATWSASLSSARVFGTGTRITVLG
resultValue: > 50 µg/mL
//
binder: CAP256-VRC26.12 (antibody, V domains shown) VH: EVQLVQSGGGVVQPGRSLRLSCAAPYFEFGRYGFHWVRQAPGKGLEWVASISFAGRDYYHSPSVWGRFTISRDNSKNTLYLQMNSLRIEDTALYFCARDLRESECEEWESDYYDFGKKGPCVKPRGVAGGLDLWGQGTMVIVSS VL: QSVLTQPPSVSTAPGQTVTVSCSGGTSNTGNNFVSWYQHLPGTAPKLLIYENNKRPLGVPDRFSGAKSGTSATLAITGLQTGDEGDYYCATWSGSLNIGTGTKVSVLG
resultValue: > 50 µg/mL
//
binder: CAP256-VRC26.07 (antibody, V domains shown) VH: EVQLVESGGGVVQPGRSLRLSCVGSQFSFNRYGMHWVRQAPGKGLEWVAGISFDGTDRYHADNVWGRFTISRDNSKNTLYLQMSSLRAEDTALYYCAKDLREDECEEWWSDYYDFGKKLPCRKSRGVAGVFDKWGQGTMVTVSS VL: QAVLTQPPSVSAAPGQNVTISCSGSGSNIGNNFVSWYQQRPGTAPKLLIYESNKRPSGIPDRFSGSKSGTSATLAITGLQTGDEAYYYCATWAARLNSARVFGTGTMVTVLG
resultValue: > 50 µg/mL
